// inhibition lookup, one value per entry
Target: Perilipin-5 (Homo sapiens) + 1-acylglycerol-3-phosphate O-acyltransferase ABHD5 (Homo sapiens) (UniProt Q00G26+Q8WTS1)
Sequence (Q00G26 whole entry, looked up): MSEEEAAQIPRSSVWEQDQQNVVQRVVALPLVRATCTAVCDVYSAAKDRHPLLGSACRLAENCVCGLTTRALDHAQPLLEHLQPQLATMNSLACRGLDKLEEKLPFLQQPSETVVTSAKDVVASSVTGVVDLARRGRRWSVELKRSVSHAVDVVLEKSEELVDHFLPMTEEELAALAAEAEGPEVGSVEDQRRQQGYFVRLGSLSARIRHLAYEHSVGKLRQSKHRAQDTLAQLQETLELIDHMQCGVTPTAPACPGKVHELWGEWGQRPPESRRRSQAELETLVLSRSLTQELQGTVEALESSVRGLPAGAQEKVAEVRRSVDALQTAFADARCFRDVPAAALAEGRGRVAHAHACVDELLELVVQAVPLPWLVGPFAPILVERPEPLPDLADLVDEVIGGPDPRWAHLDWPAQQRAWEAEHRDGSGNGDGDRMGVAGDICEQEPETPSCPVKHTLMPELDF
Sequence (Q8WTS1 whole entry, looked up): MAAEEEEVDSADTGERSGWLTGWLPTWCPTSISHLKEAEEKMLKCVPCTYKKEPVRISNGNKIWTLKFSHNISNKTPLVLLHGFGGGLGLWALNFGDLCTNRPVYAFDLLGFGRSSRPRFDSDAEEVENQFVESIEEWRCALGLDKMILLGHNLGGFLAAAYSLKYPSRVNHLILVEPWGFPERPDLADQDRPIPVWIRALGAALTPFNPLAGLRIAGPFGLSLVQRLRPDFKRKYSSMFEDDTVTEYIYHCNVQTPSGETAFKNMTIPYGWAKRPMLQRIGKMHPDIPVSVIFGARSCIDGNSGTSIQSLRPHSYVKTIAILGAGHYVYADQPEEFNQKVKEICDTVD
Assay: ABHD5-PLIN5 interaction inhibitors, pilot screen, cell lysate, split luciferase complementation, luminescence, NIH validation set (AID 493035);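 also: 0% = DMSO only wells while the 100% control is not stated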
Conditions: split G. princeps luciferase complementation, lysates, 4 h, at 7.9 µM, stronger effect = higher value
Out of some 2,000 compounds screened, about 45 (2%) were called active. Many of the other results were omitted from the sample, so actives are more common in it than they were.
readout.type: inhibition (%)

compound | readout.type | recorded.result
C[N+]1(C)C2CCC1CC(OC(=O)C(CO)c1ccccc1)C2 (stereo not drawn) | inhibition | -3.97
Cc1ccc(/C=C2/C(=O)NC(=O)N(C)C2=O)cc1 | inhibition | 7.85
COc1cc(/C=C2\C(=O)NC(=O)N(c3ccccc3)C2=O)c([N+](=O)[O-])cc1OC | inhibition | 63.5
CCOC(=O)C(C)Oc1cc(C)cc2oc(=O)c3c(c12)CCCC3 (stereo not drawn) | inhibition | 6.91
CCOc1ccc(N2C(=O)NC(=O)/C(=C\c3cc(OC)c(OC)cc3[N+](=O)[O-])C2=O)cc1 | inhibition | 66.2
Cc1ccc(-n2c(C)cc(/C=C3/C(=O)NC(=O)N(C)C3=O)c2C)cc1 | inhibition | 33.2
C[C@]12CC[C@@H](O)C[C@@H]1CC[C@@H]1[C@@H]2CC[C@]2(C)[C@@H](O)CC[C@@H]12 | inhibition | -3.26
C[C@]12CC[C@@H](O)C[C@@H]1CC[C@@H]1[C@@H]2CC[C@]2(C)C(=O)CC[C@@H]12 | inhibition | -8.46
